Biological target: Human ALDH1A1 (Homo sapiens)
Construct: made in house
Sequence (P00352 1-501): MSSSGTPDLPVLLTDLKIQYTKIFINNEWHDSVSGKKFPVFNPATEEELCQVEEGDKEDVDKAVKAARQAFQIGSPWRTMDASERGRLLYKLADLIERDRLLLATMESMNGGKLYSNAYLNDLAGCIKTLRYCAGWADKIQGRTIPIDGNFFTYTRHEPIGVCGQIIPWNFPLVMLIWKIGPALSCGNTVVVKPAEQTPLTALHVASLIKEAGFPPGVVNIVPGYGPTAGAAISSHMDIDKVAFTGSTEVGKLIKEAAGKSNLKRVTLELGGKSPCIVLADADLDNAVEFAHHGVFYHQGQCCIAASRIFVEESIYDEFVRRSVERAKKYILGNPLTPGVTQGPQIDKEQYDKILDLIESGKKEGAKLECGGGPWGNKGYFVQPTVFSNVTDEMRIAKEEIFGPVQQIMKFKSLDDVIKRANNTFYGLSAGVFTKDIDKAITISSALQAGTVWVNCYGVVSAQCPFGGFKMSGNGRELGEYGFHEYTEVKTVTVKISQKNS
Test: 1,536-well enzymatic assay (NADH fluorescence), ALDH1A1
Format: biochemical
Settings: Biochemical IC50 ALDH1A1, validation set; 20 nM enzyme, NAD+ and propionaldehyde
Readout kind: IC50 (µM)
Quick note: give the figure in µM, leave out the unit.

Exam item: # query: IC50 of entry Cc1cc2c(C(C)C)c(O)c(O)c(C=O)c2c(O)c1-c1c(C)cc2c(C(C)C)c(O)c(O)c(C=O)c2c1O
Marked response: 25.6

* * *

Tested on: MIA PaCa-2 cells
Assay: 1,536-well high-content imaging ALDEFLUOR assay, MIA PaCa-2
Assay type: cell-based, human
Conditions: Homo sapiens, MIA PaCa-2, 0.5 h, validation set; semi-automated protocol, 16-point dilution, 1,000 cells/well, 500 nM BAAA, 30 min; read-out: Aldefluor IC50 MIA PaCa-2
Excerpt: To miniaturize the assay into a 1536-well format amenable to qHTS, we chose MIA PaCa-2 and HT-29 because of their high levels of ALDH1A1(Fig 1A). […] Fluorescence was subsequently imaged using the IN Cell Analyzer 2200 high-content widefield fluorescence based imager and the resulting images were quantified using the IN Cell Investigator v1.6.2 analysis software (see Experimental Procedures for analysis details). […]
Readout kind: IC50 (µM)
Quick note: give the figure in µM, leave out the unit.

Exam item: # query: IC50 of entry CCN(CC)C(=S)SSC(=S)N(CC)CC
Marked response: 11

Exam item: Also check O=C1Nc2ccccc2C1=O
Marked response: 12

* * *

Target: Human ALDH1A3 (Homo sapiens)
Construct: purchased ThermoFisher 11636H07E50
Sequence (P47895 1-512): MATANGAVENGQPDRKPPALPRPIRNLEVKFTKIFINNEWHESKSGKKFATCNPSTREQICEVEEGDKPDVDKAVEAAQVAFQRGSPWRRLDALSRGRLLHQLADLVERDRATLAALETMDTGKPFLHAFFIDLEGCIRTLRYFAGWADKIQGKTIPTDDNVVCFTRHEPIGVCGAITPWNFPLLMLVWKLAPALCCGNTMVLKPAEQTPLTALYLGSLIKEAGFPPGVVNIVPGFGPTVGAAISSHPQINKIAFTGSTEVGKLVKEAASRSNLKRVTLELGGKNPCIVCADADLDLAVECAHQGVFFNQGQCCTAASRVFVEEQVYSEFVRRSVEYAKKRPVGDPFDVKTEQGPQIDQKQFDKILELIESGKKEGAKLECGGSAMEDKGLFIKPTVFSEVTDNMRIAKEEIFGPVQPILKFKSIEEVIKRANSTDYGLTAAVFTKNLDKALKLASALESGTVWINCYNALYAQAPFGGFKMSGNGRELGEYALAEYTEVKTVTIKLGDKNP
Assay: 1,536-well enzymatic assay (NADH fluorescence), ALDH1A3
Type: biochemical
Conditions: validation set; 50 nM enzyme, NAD+ and propionaldehyde; read-out: Biochemical IC50 ALDH1A3
Readout kind: IC50

Nc1ccccc1C(=O)CC(N)C(=O)O (centres unmarked) [Kynurenine]: 27 µM
CC(C)=CCCC(C)=CC=O (mixture of isomers) [Citral]: 2.7 µM
COc1cccc2cc(C(=O)CC3(O)C(=O)N(Cc4ccccc4)c4ccccc43)c(=O)oc12 (centres unmarked) [CID 2929292]: 24.1 µM
C#CCN(C)Cc1ccccc1 [Pargyline]: 17 µM
Cc1nc2ccccc2n1S(=O)(=O)c1ccc(F)cc1 [CB7]: 12.1 µM
CCOc1ccc(NCC(=O)Nc2ccc(Cl)cc2C)cc1 [CID 725345]: 3.82 µM
CC(C)(C)c1ccc(S(=O)(=O)/C=C/C#N)cc1 [Bay-11-7085]: 0.68 µM
CCN(CC)C(=S)SSC(=S)N(CC)CC [Disulfiram]: 0.68 µM
O=C1Nc2ccccc2C1=O [indoline-2,3-dione]: 7.62 µM
CCN(CC)c1ccc(C=O)cc1 [DEAB, 4-N,N-diethylaminobenzaldehyde]: 24.1 µM

With those in mind, consider the next molecule.
Exam item: # query: IC50 of entry COc1ccc(C(=O)CCN(C)C)cc1F [Aldi-2]
Marked response: 0.24 µM

* * *

Target: Human ALDH1A2 (Homo sapiens)
Construct: purchased MyBioSource MBS1005929
Test: 1,536-well enzymatic assay (NADH fluorescence), ALDH1A2
Assay type: biochemical
Text: To validate our optimized assay, we assembled a set of 20 previously reported ALDH inhibitors, with varying degrees of target specificity (Table 1 and S4 Fig). […] An orthogonal resorufin-based assay format was also run with isolated ALDH1A1 to rule out potential false positives due to intrinsic compound fluorescence. […]
Readout kind: pIC50
Here pIC50 is given on a logarithmic scale as minus log10 of the concentration in mol/L.

O=c1c(-c2ccc(O)cc2)coc2cc(O[C@@H]3O[C@H](CO)[C@@H](O)[C@H](O)[C@H]3O)ccc12: 4.67

With those in mind, consider the next compound.
Exam item: # query: pIC50 of entry Cc1cc2c(C(C)C)c(O)c(O)c(C=O)c2c(O)c1-c1c(C)cc2c(C(C)C)c(O)c(O)c(C=O)c2c1O
Marked response: 5.27

* * *

Test system: LN-229 cells
Experiment: 1,536-well high-content imaging ALDEFLUOR assay, LN-229
Type: cell-based, human
Details: Homo sapiens, LN-229, read-out: ALDEFLUOR IC50 LN229, retest of screen hits, 11-point dose response 0.77 nM to 45.8 μM
Readout kind: IC50 (µM)
Quick note: give the figure in µM, leave out the unit.

Exam item: # query: IC50 of entry CC(C)N(C(=O)CCl)c1ccccc1 [Propachlor]
Marked response: 16

* * *

Target: Human ALDH1A2 (Homo sapiens, UniProt O94788)
Construct: purchased MyBioSource MBS1005929
Sequence (O94788 whole entry): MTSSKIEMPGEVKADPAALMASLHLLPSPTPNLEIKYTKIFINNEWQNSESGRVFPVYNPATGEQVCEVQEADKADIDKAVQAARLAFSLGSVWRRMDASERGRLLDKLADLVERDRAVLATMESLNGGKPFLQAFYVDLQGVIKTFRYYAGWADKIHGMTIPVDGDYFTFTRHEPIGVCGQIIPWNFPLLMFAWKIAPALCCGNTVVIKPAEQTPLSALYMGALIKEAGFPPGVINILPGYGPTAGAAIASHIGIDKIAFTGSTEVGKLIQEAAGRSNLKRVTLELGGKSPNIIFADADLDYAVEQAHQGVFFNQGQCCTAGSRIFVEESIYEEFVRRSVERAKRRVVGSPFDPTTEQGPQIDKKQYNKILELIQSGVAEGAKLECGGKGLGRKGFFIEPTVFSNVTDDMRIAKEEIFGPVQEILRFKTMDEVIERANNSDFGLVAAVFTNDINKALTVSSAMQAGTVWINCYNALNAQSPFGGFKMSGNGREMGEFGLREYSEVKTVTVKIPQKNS
Test: 1,536-well enzymatic assay (NADH fluorescence), ALDH1A2
Format: biochemical
Details: validation set; 50 nM enzyme, NAD+ and propionaldehyde; read-out: Biochemical IC50 ALDH1A2
Strictly below 3 µM in IC50: yes. Otherwise: no.

Worked set:
Cc1nc2ccccc2n1S(=O)(=O)c1ccc(F)cc1: no
O=C1Nc2ccccc2C1=O: yes

Exam item: Is the reported IC50 for COc1ccc(C(=O)CCN(C)C)cc1F strictly below 3 µM?
Marked response: yes

Exam item: Also check C#CCN(C)Cc1ccccc1
Marked response: no

Exam item: Also check Nc1ccccc1C(=O)CC(N)C(=O)O (stereo not drawn)
Marked response: no

* * *

Biological target: Human ALDH1A1 (Homo sapiens, UniProt P00352)
Construct: made in house
Sequence (P00352 1-501): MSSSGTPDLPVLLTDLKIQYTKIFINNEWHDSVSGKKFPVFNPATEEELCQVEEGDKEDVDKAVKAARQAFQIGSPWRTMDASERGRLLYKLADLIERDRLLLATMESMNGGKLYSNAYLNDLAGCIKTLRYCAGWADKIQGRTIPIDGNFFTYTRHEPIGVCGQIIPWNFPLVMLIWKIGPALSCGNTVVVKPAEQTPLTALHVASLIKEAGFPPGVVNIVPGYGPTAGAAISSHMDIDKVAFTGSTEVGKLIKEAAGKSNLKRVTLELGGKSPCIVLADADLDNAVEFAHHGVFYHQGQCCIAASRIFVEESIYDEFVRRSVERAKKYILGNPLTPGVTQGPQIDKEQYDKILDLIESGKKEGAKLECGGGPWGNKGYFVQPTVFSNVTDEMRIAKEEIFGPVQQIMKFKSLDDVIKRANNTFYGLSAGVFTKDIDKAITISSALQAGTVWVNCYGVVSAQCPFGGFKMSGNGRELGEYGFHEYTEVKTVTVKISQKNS
Test: 1,536-well enzymatic assay (NADH fluorescence), ALDH1A1
Type: biochemical
Details: validation set; 20 nM enzyme, NAD+ and propionaldehyde; read-out: Biochemical IC50 ALDH1A1
pIC50: −log10 of the molar value.
Would you please tag the item satisfied when its pIC50 is 7 or above, and not satisfied when it is below?

Worked set:
CCSC(=O)N1CCCCCC1 [Molinate]: not satisfied
O=C1Nc2ccccc2C1=O: satisfied
CCOc1ccc(NCC(=O)Nc2ccc(Cl)cc2C)cc1: not satisfied
COc1cccc2cc(C(=O)CC3(O)C(=O)N(Cc4ccccc4)c4ccccc43)c(=O)oc12 (centres unmarked): not satisfied
CC(C)=CCCC(C)=CC=O (mixture of isomers): not satisfied

From here, focus on the item given below.
Exam item: Please check the record Nc1ccccc1C(=O)CC(N)C(=O)O (centres unmarked) and state if its pIC50 is at or above 7.
Marked response: not satisfied
